The measured values listed here are drawn from patent US6228872A.

# assay target: FKBP12 (Homo sapiens)
# experiment: FKBP12 Rotamase Inhibition Assay
# Format: biochemical
# setup conditions: Table 2; 10 μM; read-out: % inhib. at 10 μM
readout kind: inhibition at 10 µM (%)

COc1cc(C(=O)C(=O)N2CCC[C@H]2COC(=O)N(CCCc2ccccc2)CCCc2cccnc2)cc(OC)c1OC :: 100
COc1cc(C(F)(F)C(=O)N2CCC[C@H]2COC(=O)N(CCCc2ccccc2)CCCc2cccnc2)cc(OC)c1OC :: 98
COc1cc(C(=O)C(=O)N2CCC[C@H]2COC(=O)N(CCCc2cccnc2)CCc2ccccc2)cc(OC)c1OC :: 80
COc1cc(C(=O)C(=O)N2CCC[C@H]2COC(=O)N(CCCCc2ccccc2)CCCc2cccnc2)cc(OC)c1OC :: 96

----------
# assay target: FKBP12 (Homo sapiens, UniProt P62942)
# Sequence (P62942 whole entry, species assumed): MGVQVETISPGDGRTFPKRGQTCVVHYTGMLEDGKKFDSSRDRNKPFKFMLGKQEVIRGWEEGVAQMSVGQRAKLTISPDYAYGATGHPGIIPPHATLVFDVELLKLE
# experiment: FKBP12 Rotamase Inhibition Assay
# Assay type: biochemical
# setup conditions: Table 2; 1 μM (values marked *); read-out: % inhib. at 1 μM*
readout kind: inhibition at 1 µM (%)

COc1cc(C(=O)C(=O)N2CCC[C@H]2COC(=O)N(CCCCc2cccnc2)Cc2ccccc2)cc(OC)c1OC :: 18
COc1cc(C(=O)C(=O)N2CCC[C@H]2COC(=O)N(CCCCc2cccnc2)CCCc2ccccc2)cc(OC)c1OC :: 54
COc1cc(C(F)(F)C(=O)N2CCC[C@H]2COC(=O)N(CCCCc2cccnc2)Cc2ccccc2)cc(OC)c1OC :: 63
COc1cc(C(F)(F)C(=O)N2CCC[C@H]2COC(=O)N(CCCCc2cccnc2)CCCc2ccccc2)cc(OC)c1OC :: 80

P. COc1cc(C(F)(F)C(=O)N2CCC[C@H]2COC(=O)N(CCCCc2ccccc2)CCCCc2cccnc2)cc(OC)c1OC
Q. COc1cc(C(F)(F)C(=O)N2CCCCC2COC(=O)N(CCCCc2ccccc2)CCCc2cccnc2)cc(OC)c1OC (racemic)
R. COc1cc(C(F)(F)C(=O)N2CCCCC2COC(=O)N(CCCc2cccnc2)CCc2ccccc2)cc(OC)c1OC (racemic)
S. COc1cc(C(=O)C(=O)N2CCC[C@H]2COC(=O)N(CCCCc2ccccc2)CCCCc2cccnc2)cc(OC)c1OC
T. COc1cc(C(F)(F)C(=O)N2CCCCC2COC(=O)N(CCCc2cccnc2)Cc2ccccc2)cc(OC)c1OC (racemic)
Put these in order: smallest inhibition at 1 µM first, largest last. Present the labels in the sequence the task asks for.
Q, R, T, S, P
(Q: 0%, R: 1%, T: 11%, S: 52%, P: 83%)

----------
# assay target: FKBP12 (Homo sapiens, UniProt P62942)
# experiment: FKBP12 Rotamase Inhibition Assay
# Assay type: biochemical
# setup conditions: Table 1; 10 μM; read-out: % inhib. at 10 μM
readout kind: inhibition at 10 µM (%)

CC(C)(C)C(=O)C(=O)N1CCC[C@H]1COC(=O)N(Cc1ccccc1)Cc1ccccc1 :: 27
CC(C)(C)C(=O)C(=O)N1CCC[C@H]1COC(=O)NCc1cccnc1 :: 12

1. COc1cc(C(=O)C(=O)N2CCC[C@H]2COC(=O)NCCc2ccccc2)cc(OC)c1OC
2. CC(C)(C)C(=O)C(=O)N1CCC[C@H]1COC(=O)N(CCc1ccccc1)Cc1ccccc1
3. CC(C)(C)C(=O)C(=O)N1CCC[C@H]1COC(=O)NCCc1ccccc1
4. CC(C)(C)C(=O)C(=O)N1CCC[C@H]1COC(=O)N(CCCc1ccccc1)CCCc1cccnc1
Please produce an ascending ranking of these compounds based on inhibition at 10 µM. Please list the labels according to the requested order.
3, 1, 2, 4
(3: 0%, 1: 11%, 2: 39%, 4: 93%)

P. CC(C)(C)C(=O)C(=O)N1CCC[C@H]1COC(=O)NCCCc1ccccc1
Q. COc1cc(C(=O)C(=O)N2CCC[C@H]2COC(=O)NCc2cccnc2)cc(OC)c1OC
Of P and Q , which carries the smaller reported inhibition at 10 µM figure? Give the chosen item's label as your response.
Q
